B1: HHH_rd2_0155 (parent)
chain: PPDDERKKAEKAARSGNEEKAREILERLGYSEDEARELAKRLR

Variants of: B1
Test: folding stability dG (cDNA display proteolysis); higher = more stable
Conditions: PBS, room temperature
ATTRIBUTE_MEASURED: folding stability dG
Answer format: value, then unit.

The examples below pair each entry with its known result.
D4F: 2.02 kcal/mol
A35V: 0.99 kcal/mol
E19V: 1.95 kcal/mol

What the record says about S15R : folding stability dG is 2.05 kcal/mol

Input D4Q . Output folding stability dG: 2.04 kcal/mol

Entry A21R ; folding stability dG = 0.974 kcal/mol

// K20W : folding stability dG value = 1.98 kcal/mol
